Provenance of the data: ChEMBL document CHEMBL1828569

assayText: Lipophilicity, log D of the compound at pH 7.4 by pH metric method
Assay type: physicochemical
particulars: buffer
testReadout: logD

O=C1C=C(O)CC1Cc1ccc(Br)cc1 (stereo not given) : -0.42

1 = O=C1CCC(O)=C1Cc1ccc(Br)cc1
2 = O=C(O)CCc1ccc(Br)cc1
**Q:** From the recorded data, which exceeds the other in logD: 1 or 2 ? Mark your selection by writing its label.
**A:** 2

1 = Brc1ccc(Cc2nn[nH]n2)cc1
2 = CC1=C(O)CC(Cc2ccc(Br)cc2)C1=O (stereo not given)
**Q:** Given the listed records, identify the one among 1 and 2 with higher logD. Answer = label.
**A:** 2
(2: 0.11, 1: -0.42)
